# Test system: rat liver microsomes (RLM)
# experiment: Aerobic incubation of nitroxides with rat liver microsomes and NADPH monitored by EPR
# assay context: ferricyanide 1 mM added to whole system after 30 min incubation
readout label: Nitroxide recovered upon reoxidation with potassium ferricyanide

* CCC1(CC)CC(C(=O)O)C(CC)(CC)N1[O] (stereo not drawn) [Nitroxide 3] | not the case
* CCC1(CC)c2ccc(C(=O)O)cc2C(CC)(CC)N1[O] [Nitroxide 5] | not the case
* CCC1(CC)C=C(C(=O)O)C(CC)(CC)N1[O] [Nitroxide 4] | not the case

----------
Listed here are compounds together with their documented Initial rate of decrease, +DPI.
# Tested on: rat liver microsomes (RLM)
# experiment: Aerobic incubation of nitroxides with rat liver microsomes and NADPH monitored by EPR
# assay context: whole system + diphenyliodonium chloride 100 μM, nitroxide 100 µM
Marks after values point to notes of the source that are not given here.
readout label: Initial rate of decrease, +DPI

• CCC1(CC)c2ccc(C(=O)O)cc2C(CC)(CC)N1[O] [Nitroxide 5] = 0.0 *** nmol·min^−1·mg^−1 prot
• CCC1(CC)C=C(C(=O)O)C(CC)(CC)N1[O] [Nitroxide 4] = 0.0 ** nmol·min^−1·mg^−1 prot
• CCC1(CC)CC(C(=O)O)C(CC)(CC)N1[O] (stereo not drawn) [Nitroxide 3] = 0.0 ** nmol·min^−1·mg^−1 prot
